The entries below come with measured qv* (Moles of water/mole of polar groups at Cv) values attached.
- assay-protocol: Glass-forming tendency: concentration needed to vitrify (Cv), Q and qv*
- Type: physicochemical
- protocol-conditions: pure CPA, Table 1
API note: the answer field is a bare number with no unit suffix.

Past entries and their recorded results:
O=C(CO)CO [1,3-dihydroxyacetone] | 1.7
CC(N)=O [Acetamide] | 1.2
CC(=O)CO [Acetol, hydroxyacetone] | 1.4
OCCO | 1.4
OCCCO | 1.6

Name the reported qv* (Moles of water/mole of polar groups at Cv) value associated with the molecule CNC=O [N-Methyl-Formamide]
1.3

* * *

- assay-protocol: Glass-forming tendency: concentration needed to vitrify (Cv), Q and qv*
- Type: physicochemical
- protocol-conditions: pure CPA at Cv
Please note: 1 (yes) applies when Moles of water/mole of CPA (10/Q) is 3 or greater, and 0 (no) applies otherwise.

Worked examples follow.
CNC=O [N-Methyl-Formamide] | 0 (no)
CC(N)=O [Acetamide] | 0 (no)
O=C(CO)CO [1,3-dihydroxyacetone] | 1 (yes)
OCCCO | 1 (yes)

Then this compound:
Check if Moles of water/mole of CPA (10/Q) >= 3 (inclusive). Item: CC(=O)CO [Acetol, hydroxyacetone]
0 (no)

Sourced from patent US6395467B1
